Molecular target: T1, human Y2 receptor (human, UniProt P49146 1-381)
T1 construct: whole, on cells; used as membrane fraction of CHO/dhfr- cells stably expressing hY2R; also called hY2R; human NPY2R
T1 sequence (looked up): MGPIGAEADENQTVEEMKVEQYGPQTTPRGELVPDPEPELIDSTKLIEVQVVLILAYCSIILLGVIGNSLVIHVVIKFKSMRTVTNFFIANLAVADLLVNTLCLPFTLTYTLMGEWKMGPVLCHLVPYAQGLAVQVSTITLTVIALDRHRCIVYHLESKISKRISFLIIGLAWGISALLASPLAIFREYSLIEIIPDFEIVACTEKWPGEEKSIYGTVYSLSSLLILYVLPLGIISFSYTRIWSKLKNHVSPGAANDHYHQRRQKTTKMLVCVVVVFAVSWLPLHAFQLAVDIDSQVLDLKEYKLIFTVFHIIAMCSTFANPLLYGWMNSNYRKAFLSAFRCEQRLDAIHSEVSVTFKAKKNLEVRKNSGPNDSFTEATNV
Test: RBA: displacement of [125I]-PYY from hY2R/CHO membranes
Non-standard residues stand in square brackets, D forms with d. Phe(2-Me) = Cc1ccccc1C[C@H](N)C(=O)O; Cha = N[C@@H](CC1CCCCC1)C(=O)O; Aib = CC(C)(N)C(=O)O
parameter.measured: IC50 Ratio

Request: Give its IC50 Ratio value. Item: Ac-S[dP]RQ[Cha][Aib]NK[Aib]TRQR[Cha]-NH2 (SMILES CC(=O)N[C@@H](CO)C(=O)N1CCC[C@@H]1C(=O)N[C@@H](CCCNC(=N)N)C(=O)N[C@@H](CCC(N)=O)C(=O)N[C@@H](CC1CCCCC1)C(=O)NC(C)(C)C(=O)N[C@@H](CC(N)=O)C(=O)N[C@@H](CCCCN)C(=O)NC(C)(C)C(=O)N[C@H](C(=O)N[C@@H](CCCNC(=N)N)C(=O)N[C@@H](CCC(N)=O)C(=O)N[C@@H](CCCNC(=N)N)C(=O)N[C@@H](CC1CCCCC1)C(N)=O)[C@@H](C)O, also called compound No. 221) [Ac-[D-Pro24, Gln26, Cha27,36, Aib28,31, Lys30]-PYY(23-36)]
Result: 3.1 IC50 compound/IC50 PYY(3-36)

Request: Check Ac-E[dP]RH[Cha][Cha]NK[Aib]TRQR[Phe(2-Me)]-NH2 (SMILES CC(=O)N[C@@H](CCC(=O)O)C(=O)N1CCC[C@@H]1C(=O)N[C@@H](CCCNC(=N)N)C(=O)N[C@@H](Cc1c[nH]cn1)C(=O)N[C@@H](CC1CCCCC1)C(=O)N[C@@H](CC1CCCCC1)C(=O)N[C@@H](CC(N)=O)C(=O)N[C@@H](CCCCN)C(=O)NC(C)(C)C(=O)N[C@H](C(=O)N[C@@H](CCCNC(=N)N)C(=O)N[C@@H](CCC(N)=O)C(=O)N[C@@H](CCCNC(=N)N)C(=O)N[C@@H](Cc1ccccc1C)C(N)=O)[C@@H](C)O, also called compound No. 256) [Ac-[Glu23, D-Pro24, Cha27,28, Lys30, Aib31, Phe(2Me)36]-PYY(23-36)] too.
Result: 1.7 IC50 compound/IC50 PYY(3-36)

Request: Check Ac-S[dP]RW[Cha][Aib]NK[Aib]TRQR[Cha]-NH2 (SMILES CC(=O)N[C@@H](CO)C(=O)N1CCC[C@@H]1C(=O)N[C@@H](CCCNC(=N)N)C(=O)N[C@@H](Cc1c[nH]c2ccccc12)C(=O)N[C@@H](CC1CCCCC1)C(=O)NC(C)(C)C(=O)N[C@@H](CC(N)=O)C(=O)N[C@@H](CCCCN)C(=O)NC(C)(C)C(=O)N[C@H](C(=O)N[C@@H](CCCNC(=N)N)C(=O)N[C@@H](CCC(N)=O)C(=O)N[C@@H](CCCNC(=N)N)C(=O)N[C@@H](CC1CCCCC1)C(N)=O)[C@@H](C)O, also called compound No. 347) [Ac-[D-Pro24, Trp26, Cha27,36, Aib28,31, Lys30]-PYY(23-36)] too.
Result: 0.76 IC50 compound/IC50 PYY(3-36)

Request: Check Ac-S[dP]RY[Cha][Aib]NK[Aib]TRQR[Cha]-NH2 (SMILES CC(=O)N[C@@H](CO)C(=O)N1CCC[C@@H]1C(=O)N[C@@H](CCCNC(=N)N)C(=O)N[C@@H](Cc1ccc(O)cc1)C(=O)N[C@@H](CC1CCCCC1)C(=O)NC(C)(C)C(=O)N[C@@H](CC(N)=O)C(=O)N[C@@H](CCCCN)C(=O)NC(C)(C)C(=O)N[C@H](C(=O)N[C@@H](CCCNC(=N)N)C(=O)N[C@@H](CCC(N)=O)C(=O)N[C@@H](CCCNC(=N)N)C(=O)N[C@@H](CC1CCCCC1)C(N)=O)[C@@H](C)O, also called compound No. 346) [Ac-[D-Pro24, Tyr26, Cha27,36, Aib28,31, Lys30]-PYY(23-36)] too.
Result: 1 IC50 compound/IC50 PYY(3-36)
